Tested on: human red blood cells
Assay comment: ATP release from red blood cells
Format: cell-based
Condition label: pH 7.5; 5 μM peptide, human RBCs, 37 °C, ATPLite kit on supernatant

>  <Substance>
WSHLAQG LSHLAQG LSHLAQG LSHLAQG [PSPF-HQG]

>  <% ATP at 5 μM, RBC lysis assay>
5.69 % relative to Triton X-100 controls

$$$$
>  <Substance>
WSDLAKA LSDLAKA LSDLAKA LSDLAKA [PSPF-DKA]

>  <% ATP at 5 μM, RBC lysis assay>
4.64 % relative to Triton X-100 controls

$$$$
>  <Substance>
WSDLAQG LSDLAQG LSDLAQG LSDLAQG [PSPF-DQG]

>  <% ATP at 5 μM, RBC lysis assay>
3.21 % relative to Triton X-100 controls

$$$$
>  <Substance>
WSELAKA LSELAKA LSELAKA LSELAKA [PSPF-EKA]

>  <% ATP at 5 μM, RBC lysis assay>
2.02 % relative to Triton X-100 controls

$$$$
>  <Substance>
WSDLAKG LSDLAKG LSDLAKG LSDLAKG [PSPF-DKG]

>  <% ATP at 5 μM, RBC lysis assay>
7.54 % relative to Triton X-100 controls

$$$$
